Target: T1, IL-18 receptor (IL-18R) on HEK-Blue IL18R reporter cells (UniProt Q13478 19-541; O95256 20-599, limits assumed)
T1 sequence (looked up) 1: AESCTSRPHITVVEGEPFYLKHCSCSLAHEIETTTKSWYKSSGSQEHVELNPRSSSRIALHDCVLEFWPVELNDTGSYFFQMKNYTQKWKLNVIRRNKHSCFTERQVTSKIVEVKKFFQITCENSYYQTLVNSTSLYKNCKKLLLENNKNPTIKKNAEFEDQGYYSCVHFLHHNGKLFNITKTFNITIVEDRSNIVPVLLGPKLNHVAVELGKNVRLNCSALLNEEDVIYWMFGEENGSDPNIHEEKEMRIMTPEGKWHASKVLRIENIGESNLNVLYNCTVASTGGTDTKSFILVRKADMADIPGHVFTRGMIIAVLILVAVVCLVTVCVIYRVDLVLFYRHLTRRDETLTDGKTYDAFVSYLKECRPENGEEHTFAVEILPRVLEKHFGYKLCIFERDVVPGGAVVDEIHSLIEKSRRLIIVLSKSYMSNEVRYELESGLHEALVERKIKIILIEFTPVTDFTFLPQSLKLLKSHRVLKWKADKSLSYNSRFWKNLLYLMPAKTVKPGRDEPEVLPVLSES
T1 sequence (looked up) 2: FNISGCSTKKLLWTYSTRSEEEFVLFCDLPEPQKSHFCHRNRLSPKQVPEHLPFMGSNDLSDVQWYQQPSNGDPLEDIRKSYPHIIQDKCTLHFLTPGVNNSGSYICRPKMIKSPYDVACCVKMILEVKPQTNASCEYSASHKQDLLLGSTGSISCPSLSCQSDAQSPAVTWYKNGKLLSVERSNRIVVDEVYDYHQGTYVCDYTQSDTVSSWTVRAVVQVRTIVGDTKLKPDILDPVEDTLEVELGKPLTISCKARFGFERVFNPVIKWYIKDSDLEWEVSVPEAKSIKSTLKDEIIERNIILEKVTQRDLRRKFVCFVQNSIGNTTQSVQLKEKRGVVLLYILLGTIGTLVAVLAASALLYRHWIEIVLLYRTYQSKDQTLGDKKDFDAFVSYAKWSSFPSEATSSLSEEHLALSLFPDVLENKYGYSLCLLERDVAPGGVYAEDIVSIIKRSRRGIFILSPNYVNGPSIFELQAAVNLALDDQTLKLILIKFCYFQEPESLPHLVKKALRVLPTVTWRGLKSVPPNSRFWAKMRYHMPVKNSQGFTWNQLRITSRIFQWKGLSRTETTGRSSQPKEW
Test: cell-based or functional assay
PROPERTY: EC50, HEK-Blue IL18R reporter (nM)

BINDER	UOM	TEST_VALUE
IL-18 variant SEQ ID NO: 243 (Y1M, E6K, V11I, C38A, K53A, T63A, C76A, C127A) (ligand) MFGKLKSKLSIIRNLNDQVLFIDQGNRPLFEDMTDSDARDNAPRTIFIISMYADSQPRGMAVAISVKCEKISTLSAENKIISFKEMNPPDNIKDTKSDIIFFQRSVPGHDNKMQFESSSYEGYFLAAEKERDLFKLILKKEDELGDRSIMFTVQNED	nM	0.02
IL-18 variant SEQ ID NO: 223 (K8E, V11I, C38A, C76A, Q103R, C127A) (ligand) YFGKLESELSIIRNLNDQVLFIDQGNRPLFEDMTDSDARDNAPRTIFIISMYKDSQPRGMAVTISVKCEKISTLSAENKIISFKEMNPPDNIKDTKSDIIFFRRSVPGHDNKMQFESSSYEGYFLAAEKERDLFKLILKKEDELGDRSIMFTVQNED	nM	2.3
IL-18 variant SEQ ID NO: 235 (E6K, K8E, V11I, C38A, K53A, T63A, C76A, Q103R, C127A) (ligand) YFGKLKSELSIIRNLNDQVLFIDQGNRPLFEDMTDSDARDNAPRTIFIISMYADSQPRGMAVAISVKCEKISTLSAENKIISFKEMNPPDNIKDTKSDIIFFRRSVPGHDNKMQFESSSYEGYFLAAEKERDLFKLILKKEDELGDRSIMFTVQNED	nM	0.4
IL-18 variant SEQ ID NO: 220 (V11I, C38A, K53A, C76A, H109A, C127A) (ligand) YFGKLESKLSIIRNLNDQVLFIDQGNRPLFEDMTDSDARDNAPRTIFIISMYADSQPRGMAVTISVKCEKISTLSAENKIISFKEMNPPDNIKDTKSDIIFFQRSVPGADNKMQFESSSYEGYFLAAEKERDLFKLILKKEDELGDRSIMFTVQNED	nM	19.5
IL-18 variant SEQ ID NO: 224 (V11I, C38A, C76A, Q103K, C127A) (ligand) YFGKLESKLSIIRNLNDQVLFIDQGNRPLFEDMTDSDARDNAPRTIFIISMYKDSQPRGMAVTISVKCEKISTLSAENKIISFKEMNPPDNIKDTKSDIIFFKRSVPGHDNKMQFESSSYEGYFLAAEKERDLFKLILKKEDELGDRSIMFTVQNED	nM	1.5
IL-18 variant SEQ ID NO: 232 (E6K, V11I, C38A, I49M, K53A, T63A, C76A, C127A) (ligand) YFGKLKSKLSIIRNLNDQVLFIDQGNRPLFEDMTDSDARDNAPRTIFIMSMYADSQPRGMAVAISVKCEKISTLSAENKIISFKEMNPPDNIKDTKSDIIFFQRSVPGHDNKMQFESSSYEGYFLAAEKERDLFKLILKKEDELGDRSIMFTVQNED	nM	0.07
IL-18 variant SEQ ID NO: 214 (V11I, D37A, C38A, K53A, C76A, C127A) (ligand) YFGKLESKLSIIRNLNDQVLFIDQGNRPLFEDMTDSAARDNAPRTIFIISMYADSQPRGMAVTISVKCEKISTLSAENKIISFKEMNPPDNIKDTKSDIIFFQRSVPGHDNKMQFESSSYEGYFLAAEKERDLFKLILKKEDELGDRSIMFTVQNED	nM	14.1
